Where these numbers come from: paper PMC5540273

System: MARK1
applied.conditions: concentration: 1 μM, replicates: in singlicate; n = 1;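 also: KINOMEscan kinase panel screen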
property.measured: %Inh (%)
Write the answer as a number in %, unit excluded.

Here are 5 compounds together with their reported answers.
| compound | quantitative.result |
| --- | --- |
| O=C(Nc1n[nH]c2nc(-c3cccc(O)c3)ccc12)C1CC1 | 31 |
| Cc1nn2c(=O)cc(N3CCO[C@H](C)C3)nc2n1Cc1cccc(Cl)c1Cl | 0 |
| Cc1cccc(Nc2nc(NCCN)ncc2C(N)=O)c1 | 0 |
| Cc1ccc(O)cc1Nc1ccnc2ccc(C(C)(C)C)cc12 | 36 |
| Cc1ccc(NC(=O)c2ccnc(N3CCCCC3)c2)cc1-c1ccc(C(=O)NCC2CC2)cc1 | 0 |

-- ask # return recorded %Inh for entry Cc1ccc(NC(=O)c2ccc(Cl)c(Cl)c2)cc1-c1ccc(C(=O)Nc2ccncc2)cc1
-- reply 7

-- ask For NCCC(NC(=O)c1cc(Br)c(-c2ccnc3[nH]ccc23)s1)c1ccccc1.O=C(O)C(F)(F)F.O=C(O)C(F)(F)F (stereo not shown) , write its %Inh.
-- reply 7

-- ask Output %Inh of COC(=O)Nc1nc2ccc(Oc3ccc(CC(=O)Nc4cc(C(F)(F)F)ccc4F)cc3)cc2[nH]1
-- reply 0

-- ask Supply measured %Inh of Cn1cc(-c2ccc3c(c2)CCN3C(=O)Cc2cc(F)cc(F)c2F)c2c(N)ncnc21 in your reply.
-- reply 0

-- ask Answer with reported %Inh of CCn1c(-c2nonc2N)nc2c(-c3ccccc3)ncc(OCCCN)c21.O=C(O)C(F)(F)F.O=C(O)C(F)(F)F
-- reply 0

----------
molecules and their reported %Inh
Test system: ERK3
Construct: gene MAPK6
applied.conditions: concentration: 1 μM, replicates: in singlicate; n = 1
Report the figure in % without appending any unit label.

Example molecules with recorded %Inh:
| record.smiles | %Inh, % |
| --- | --- |
| CCOc1nccc(-c2c(-c3ccc(F)cc3)ncn2C2CCNCC2)n1 | 26 |
| CN(c1ccc(F)c(NC(=O)c2cccc(OC(C)(C)C#N)c2Cl)c1)c1ccc2nc(NC(=O)C3CC3)sc2n1 | 0 |
| Cc1ccccc1CC(=O)N1CCc2cc(-c3cn(C)c4ncnc(N)c34)ccc21 | 0 |
| COc1cccc(NC(=O)NCCNc2ccnc(Nc3ccc(F)cc3)n2)c1 | 4 |
| Cc1cccc(Nc2nc(NCCN)ncc2C(N)=O)c1 | 79 |

-- ask Retrieve %Inh on ERK3; query CCn1c(-c2nonc2N)nc2c(-c3ccccc3)ncc(OCCCN)c21.O=C(O)C(F)(F)F.O=C(O)C(F)(F)F
-- reply 0

-- ask State %Inh on ERK3. Entry: Fc1cc(Cl)ccc1Nc1ccnc2cc(-c3ccc(CN4CCSCC4)o3)ccc12
-- reply 0

-- ask GET %Inh | system: ERK3 | item: O=C1NC(=O)C(c2ccccc2Cl)=C1Nc1cccc(Cl)c1
-- reply 68

-- ask Provide ERK3 %Inh reading for O=C(O)C(F)(F)F.O=c1[nH]ccc2nc(N[C@@H]3CCNC3)nc(Nc3ccc4c(c3)S(=O)(=O)CC4)c12 .
-- reply 78

-- ask Under ERK3, report %Inh for COc1cccc(CC(=O)N2CCc3cc(-c4cn(C)c5ncnc(N)c45)ccc32)c1
-- reply 0

-- ask Write down the reported %Inh (system: ERK3) of CC(C)c1nc(-c2cccc(NS(=O)(=O)c3c(F)cccc3F)c2)c(-c2ccnc(Nc3ccc(N4CCOCC4)nc3)n2)s1.Cl
-- reply 0

-- ask Recall the reported %Inh of c1ccc(Oc2ccc(Nc3ccnc4cc(-c5ccc(CN6CCCCC6)o5)ccc34)cc2)nc1 on ERK3 and write it down.
-- reply 0

-- ask Enter measured %Inh, system ERK3, for the molecule shown: Cc1ccc(O)cc1Nc1ccnc2cc(-c3ccc(CN4CCCCC4)o3)ccc12
-- reply 0

-- ask Please indicate recorded %Inh of Cn1cc(-c2ccc3c(c2)CCN3C(=O)Cc2cc(F)cc(F)c2F)c2c(N)ncnc21 measured with ERK3.
-- reply 0

-- ask # return %Inh of Nc1cccc(-c2ccc3c(N)n[nH]c3c2)c1 (system: ERK3)
-- reply 11

-- ask Please report %Inh with ERK3 for item COC(=O)Nc1nc2ccc(Oc3ccc(CC(=O)Nc4cc(C(F)(F)F)ccc4F)cc3)cc2[nH]1 .
-- reply 0

-- ask Fill in %Inh for CNc1nccc(-c2ccc3c(N)n[nH]c3c2)n1 tested with ERK3.
-- reply 0

----------
Tested on: EPHB4
applied.conditions: concentration: 1 μM, replicates: in singlicate; n = 1
property.measured: %Inh (%)
Record the value in %, omitting the unit from your answer.

| record.smiles | measurement.units | %Inh |
| --- | --- | --- |
| CN(c1ccc(F)c(NC(=O)c2cccc(OC(C)(C)C#N)c2Cl)c1)c1ccc2nc(NC(=O)C3CC3)sc2n1 | % | 14 |

-- ask Answer with reported %Inh of Cc1ccccc1CC(=O)N1CCc2cc(-c3cn(C)c4ncnc(N)c34)ccc21
-- reply 0

-- ask Return the recorded %Inh value; entry: Cc1ccc(NC(=O)c2ccnc(N3CCCCC3)c2)cc1-c1ccc(C(=O)NCC2CC2)cc1
-- reply 0

-- ask Entry O=C(Nc1n[nH]c2nc(-c3ccccc3)ccc12)C1CC1 needs its %Inh filled in; supply it.
-- reply 3

-- ask Indicate its recorded %Inh; the molecule in question is Fc1cc(Cl)ccc1Nc1ccnc2cc(-c3ccc(CN4CCSCC4)o3)ccc12
-- reply 50

-- ask Specify %Inh for COc1cccc(C2=C(Nc3cccc(O)c3)C(=O)NC2=O)c1 and stop.
-- reply 16

-- ask Using known records, supply %Inh for Cc1cc(-c2ccnc(Nc3cccc(C#N)c3)n2)cc(C)c1O
-- reply 16

-- ask Please indicate %Inh recorded for Cn1cc(-c2cnc(N)c3c(-c4ccc5c(c4)CCN5C(=O)Cc4ccccc4)csc23)cn1
-- reply 9

----------
Tested on: VPS34
Construct: gene PIK3C3
applied.conditions: concentration: 1 μM, replicates: in singlicate; n = 1
Below: a set of entries, each annotated with reported %Inh.

| record.smiles | target.system | %Inh |
| --- | --- | --- |
| COc1cccc(NC(=O)NCCNc2ccnc(Nc3ccc(F)cc3)n2)c1 | VPS34 | 0% |
| Cc1cccc(Nc2nc(NCCN)ncc2C(N)=O)c1 | VPS34 | 0% |
| COc1cccc(C2=C(Nc3cccc(O)c3)C(=O)NC2=O)c1 | VPS34 | 0% |
| N#Cc1cnc2cc(-c3cnc(CNCCN4CCOCC4)s3)ccc2c1Nc1ccc(Oc2ccccc2)cc1 | VPS34 | 0% |
| CCn1c(-c2nonc2N)nc2c(-c3ccccc3)ncc(OCCCN)c21.O=C(O)C(F)(F)F.O=C(O)C(F)(F)F | VPS34 | 0% |

-- ask Output %Inh of O=C(O)C(F)(F)F.O=c1[nH]ccc2nc(N[C@@H]3CCNC3)nc(Nc3ccc4c(c3)S(=O)(=O)CC4)c12
-- reply 88%

-- ask Give me measured %Inh, please, for this molecule: COc1ccc(C2=C(Nc3cccc(O)c3)C(=O)NC2=O)cc1
-- reply 0%

-- ask Give the value of %Inh reported for the following: Cc1ccc(O)cc1Nc1ccnc2cc(-c3ccc(CN4CCCCC4)o3)ccc12
-- reply 0%

-- ask Consider the molecule CN(C)CCOc1ccc(-c2cc(-c3ccc(Cl)c(O)c3)c(-c3ccncc3)[nH]2)cc1.Cl.Cl . State its measured %Inh.
-- reply 16%

-- ask Entry COc1cc(Nc2ccnc3cc(-c4ccncc4)ccc23)cc(OC)c1OC.Cl needs its %Inh filled in; supply it.
-- reply 0%

-- ask Give a short answer stating reported %Inh for c1ccc(Oc2ccc(Nc3ccnc4cc(-c5ccc(CN6CCCCC6)o5)ccc34)cc2)nc1 .
-- reply 0%

----------
Catalogue of %Inh values
Test system: TNIK
applied.conditions: concentration: 1 μM, replicates: in singlicate; n = 1
Write the answer as a number in %, unit excluded.

-- ask Please report the measured %Inh for NCCC(NC(=O)c1cc(Br)c(-c2ccnc3[nH]ccc23)s1)c1ccccc1.O=C(O)C(F)(F)F.O=C(O)C(F)(F)F (stereo not shown)
-- reply 52

-- ask Respond only with %Inh recorded for O=C(O)C(F)(F)F.O=c1[nH]ccc2nc(N[C@@H]3CCNC3)nc(Nc3ccc4c(c3)S(=O)(=O)CC4)c12
-- reply 98

-- ask Please give measured %Inh of the following entry: Cc1ccc(Nc2ccnc(Nc3ccc(C)c(F)c3)n2)cc1O.Cl
-- reply 0

-- ask Given the compound O=C(Nc1n[nH]c2cc(-c3cccs3)ccc12)C1CC1 , write its reported %Inh.
-- reply 56

----------
Test system: LATS2
applied.conditions: concentration: 1 μM, replicates: in singlicate; n = 1
property.measured: %Inh (%)
Unit % implied. Number only.

Study these solved cases before continuing.
| compound | quantitative.result |
| --- | --- |
| Cl.Cl.NCC(NC(=O)c1cc(-c2cccnc2)c(-c2ccnc3[nH]ccc23)s1)c1ccccc1 (centres unmarked) [GSK1323434] | 11 |
| c1ccc(Oc2ccc(Nc3ccnc4cc(-c5ccc(CN6CCCCC6)o5)ccc34)cc2)nc1 [GW567143] | 0 |
| Cc1ccc(Nc2ccnc(Nc3ccc(C)c(F)c3)n2)cc1O.Cl [GW582868] | 0 |
| CC(C)(C)c1ccc(C(=O)Nc2cn3cc(-n4ccnc4)ccc3n2)cc1 | 0 |
| O=C(O)C(F)(F)F.O=c1[nH]ccc2nc(N[C@@H]3CCNC3)nc(Nc3ccc4c(c3)S(=O)(=O)CC4)c12 [GSK2181306] | 80 |

-- ask Given Cc1cc(-c2c(-c3ccc(F)cc3)ncn2CCCN2CCOCC2)nc(N)n1 [SB-222517] , report its %Inh on LATS2.
-- reply 0

-- ask // fetch %Inh; item: CN(C)CCNS(=O)(=O)c1ccc(-c2ccnc3[nH]ccc23)cc1 [GSK977620] ; system: LATS2
-- reply 93

-- ask Fill in %Inh for N#CC1(c2cccc(C(=O)Nc3cccc(Oc4ccc5nc(NC(=O)C6CC6)sc5n4)c3)c2)CC1 tested with LATS2.
-- reply 0

-- ask Report measured %Inh on LATS2; entry: O=C(O)C(F)(F)F.O=c1[nH]ccc2nc(N[C@@H]3CCNC3)nc(Nc3cc(Cl)cc(Cl)c3)c12 [GSK2188764]
-- reply 59
